Values compiled from paper PMC6522510.

- System: MV4-11
- Parameters: species or system AML cell lines (8); Primary HTS, single concentration about 10 uM, Cell Titer Glo viability; log10 luminescence, per cent inhibition relative to cycloheximide control
- test-parameters: 72 h, relative to cycloheximide control, log10 luminescence; inhibitor
Structures can show the parent of a compound that is named as a salt.

- compound: "Cc1cc(O)cc(C)c1/C=C/c1cncc(C(=O)OC(C)(C)C)c1"
  result-units: "%"
  MV4-11 %inh: 1.728
- compound: "Cc1ccc(NC(=O)CC2CC2)cc1-c1ccc(C(=O)NCC2CC2)cc1"
  result-units: "%"
  MV4-11 %inh: 0.255
- compound: "COCCCC/C(=N\\OCCN)c1ccc(C(F)(F)F)cc1 [SJ000287487-5, FLUVOXAMINE MALEATE]"
  result-units: "%"
  MV4-11 %inh: 0.9693
- compound: "O=C1Cc2c([nH]c3ccc(Br)cc23)-c2ncccc2N1"
  result-units: "%"
  MV4-11 %inh: 9.942
- compound: "CCS(=O)(=O)c1ccc(OC)c(Nc2ncc(-c3ccccc3Cl)o2)c1"
  result-units: "%"
  MV4-11 %inh: 15.16
- compound: "O=c1c(Oc2ccc(F)cc2F)cc2cnc(NC3CCOCC3)nc2n1C1CC1"
  result-units: "%"
  MV4-11 %inh: 3.055
- compound: "c1ccc(-c2n[nH]cc2-c2ccnc(-c3ccc(OCCn4ccnc4)cc3)c2)nc1"
  result-units: "%"
  MV4-11 %inh: 2.943
- compound: "CC(C)c1[nH]nc2c1N=C(c1ccccc1Cl)c1cc([N+](=O)[O-])ccc1N2"
  result-units: "%"
  MV4-11 %inh: 1.567
